Target: HDAC1 (Homo sapiens)
Sequence (Q13547 whole entry): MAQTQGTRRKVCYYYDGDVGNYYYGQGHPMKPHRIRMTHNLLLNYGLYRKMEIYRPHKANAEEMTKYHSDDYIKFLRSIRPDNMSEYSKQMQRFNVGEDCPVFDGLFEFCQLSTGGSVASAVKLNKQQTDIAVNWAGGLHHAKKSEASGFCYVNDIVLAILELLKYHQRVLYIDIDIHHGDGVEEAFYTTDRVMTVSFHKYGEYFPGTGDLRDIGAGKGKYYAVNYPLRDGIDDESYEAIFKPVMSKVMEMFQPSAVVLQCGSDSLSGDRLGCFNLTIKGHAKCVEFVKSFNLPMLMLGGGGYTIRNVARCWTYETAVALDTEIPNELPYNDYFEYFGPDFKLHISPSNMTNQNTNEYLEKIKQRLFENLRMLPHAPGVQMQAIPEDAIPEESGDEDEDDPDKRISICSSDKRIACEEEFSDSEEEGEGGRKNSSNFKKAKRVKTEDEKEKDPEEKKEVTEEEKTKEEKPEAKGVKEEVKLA
Assay: Test of HDAC activities, HDAC1 Fluorimetric Drug Discovery Assay Kit
Format: biochemical
Parameters: purchased Enzolifesciences BML-AK511
Conditions: samples at 100, 1000, 10000 nM; 37° C. 60 minutes; fluorescence Ex 390, Em 460; read-out: HDAC inhibitory activities, HDAC1
Measure: log10 IC50 (log10 of the value in µM)
// stored as log10 of IC50 expressed in µM

# Compound, log10 IC50
rows = [
    ("O=C(NO)c1ccc(CN(C(=O)N2CCOCC2)c2cccc(Br)c2)c(F)c1", -0.75),
    ("CN(C)c1ccc(-c2cccc(N(Cc3ccc(C(=O)NO)cc3)C(=O)N3CCOCC3)c2)cn1", -0.59),
]

Query block: Can you look up the measured log10 IC50 of `CC(C)(F)CN1CCC(c2cccc(N(Cc3ccc(C(=O)NO)cc3)C(=O)N3CCOCC3)c2)CC1` for me?
Result block: -0.31

Query block: So what's the measured log10 IC50 for this one? `CN1CCN(C(=O)N(Cc2ccc(C(=O)NO)cc2)c2ccc(F)cc2F)CC1`
Result block: -0.03
